- TARGET OR TEST SYSTEM: T1, human Claudin 18.2 (CLDN18.2) (human, UniProt P56856-2 1-261)
- T1 construct: whole, on cells; recombinantly expressed on CHO, HEK293, NCI-N87, NUGC4 or PANC-1 cells; also called CHO-CLDN18.2
- ASSAY SUMMARY: FACS Exp. 1, MFI ratio CHO-18.2 over CHO-18.1
# maps each entry to its MFI_CHO-18.2/CHO-18.1 (@30 ug/ml)
Give the value as a plain number.

# BINDER, MFI_CHO-18.2/CHO-18.1 (@30 ug/ml)
records = [
    ("hz282-10 (antibody, V domains shown, humanized IgG; constant regions not specified) VH: QVQLQESGPGLVKPSETLSLTCTVSGFSLTSYNVYWIRQPPGKGLEWIGVIWNTGATRYNSALKSRVTISKDTSKNQVSLKLSSVTAADTAVYYCARDSAMPAIPFAYWGQGTLVTVSS VL: DIQMTQSPSSLSASVGDRVTITCKSSQSLFGSVRQKNYLAWYQQKPGKAPKLLIYLASTRESGVPSRFSGSGSGTDFTLTISSLQPEDFATYYCQQYYDIPWTFGGGTKVEIK", 808),
    ("282A12F3 (T62A) (antibody, human IgG1, kappa, V domains shown, chimeric human IgG1, PTM site removed; also called 282A12F3-VH-NSA (T62A); 282A12 (T62A)) VH: QVQLKESGPVLVQPSQTLSLTCTVAGFSLTSYNVYWVRQPPGKGLEWMGVIWNTGATRYNSALKSRLSISKDTSKSQVFLKMNSLQTEDTATYYCARDSAMPAIPFAYWGQGTLVTVSS VL: DIVMTQSPSSLAVSAGETVTINCKSSQSLFGSVRQKNYLAWYQQKPGQSPKLLIYLASTRESGVPDRFIGSGSGTDFTLTISSVQAEDLAKYYCQQYYDIPWTFGGGTKLELKR", 811),
]

Now turn to the next binder.
Which MFI_CHO-18.2/CHO-18.1 (@30 ug/ml) value belongs to hz282-15 (antibody, V domains shown, humanized IgG; constant regions not specified) VH: QVQLQESGPGLVKPSETLSLTCTVSGFSLTSYNVYWIRQPPGKGLEWIGVIWNTGATRYNSALKSRVTISKDTSKSQVSLKLSSVTAADTAVYYCARDSAMPAIPFAYWGQGTLVTVSS VL: DIQMTQSPSSLSASVGDRVTITCKSSQSLFGSVRQKNYLAWYQQKPGKSPKLLIYLASTRESGVPDRFSGSGSGTDFTLTISSLQPEDFAKYYCQQYYDIPWTFGGGTKVEIK ?
1380
